target: Cytochrome P450 1A2 (Homo sapiens) (UniProt P05177); test: Cytochrome panel assay with activity outcomes; details: recombinant CYP, pro-luciferin dealkylation, luminescence, p450-cyp1a2; series mostly up to 57.1 µM
Sequence (P05177 whole entry, looked up): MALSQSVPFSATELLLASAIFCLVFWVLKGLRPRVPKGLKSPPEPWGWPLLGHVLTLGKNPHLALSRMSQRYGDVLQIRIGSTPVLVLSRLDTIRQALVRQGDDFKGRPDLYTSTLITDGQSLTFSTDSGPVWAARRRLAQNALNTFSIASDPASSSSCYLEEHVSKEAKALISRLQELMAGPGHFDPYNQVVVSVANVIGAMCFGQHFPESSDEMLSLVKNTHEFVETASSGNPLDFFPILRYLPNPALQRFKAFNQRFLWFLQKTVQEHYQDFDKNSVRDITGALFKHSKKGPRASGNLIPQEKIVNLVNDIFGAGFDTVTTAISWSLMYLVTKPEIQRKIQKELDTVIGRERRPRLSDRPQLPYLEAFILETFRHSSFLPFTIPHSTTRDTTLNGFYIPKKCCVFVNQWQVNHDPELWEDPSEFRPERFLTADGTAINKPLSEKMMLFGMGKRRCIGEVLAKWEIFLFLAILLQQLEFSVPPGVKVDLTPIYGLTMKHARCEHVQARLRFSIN
The whole screen tested about 16,000 compounds, of which about 5,700 (36%) were called active. About 24% were inconclusive and are not listed. Calls follow the shape of the dose curve; as a rule, active = well fitted curve in the direction sought with a large enough effect; inconclusive = small, poorly fitted or top-dose-only effect, or effect the other way; inactive = no such curve, though single readings can be large or run the other way. Some of the results follow.
Outcomes: active, inactive

* Clc1ccc(C(c2ccc(Cl)cc2)n2cc[n+](C[C@@H](OCc3ccc(Cl)cc3Cl)c3ccc(Cl)cc3Cl)c2)cc1 | active
* COCCNc1nc(-c2ccccc2C)nc2ccccc12 | active
* O=S(=O)(c1ccccc1)N1CCC2(CCN(Cc3nccs3)CC2)CC1 | inactive
* O=C(NC(N1CCCC1)C(Cl)(Cl)Cl)c1ccccc1 (stereo unspecified) | active
* Cc1n[nH]c(C)c1N=Nc1cc(Cl)ccc1Cl | active
* CC(C)=C1C(=O)C(c2ccccc2)=C2CN3C(=O)N(CCc4ccccc4)C(=O)[C@]3(Cc3ccccc3)[C@H]21 | inactive
* COCC(=O)N1CCC2(CCCN(Cc3nccs3)C2)CC1 | inactive
* Clc1ccc(COC(Cn2ccnc2)c2ccc(Cl)cc2Cl)c(Cl)c1 (stereo unspecified) | active
* COCCNc1nc(-c2ccccc2C(F)(F)F)nc2ccccc12 | active
* COCCNc1nc(-c2ccccc2Cl)nc2ccccc12 | active
* O=C(N/C(=C\c1cccs1)C(=O)N1CCCCCC1)c1ccccc1 | inactive
